assay: Plasma clearance in Sprague-Dawley rat at 2 mg/kg, po; format: ADME, organism-based; set-up: dose 2 mg/kg, route oral

{"columns": ["compound", "CL/F / mL/min/kg"],
 "data": [
  ["COc1cc(/C=C/c2nc3cc(Cl)ccc3c(=O)[nH]2)ccc1-n1cnc(C)c1", 8]
]}

---

target: Gamma-secretase; test: Inhibition of gamma-secretase in human SH-SY5Y cells overexpressing APP assessed as amyloid beta-42 production by electrochemiluminescent assay

{"columns": ["compound", "IC50 (nM)"],
 "data": [
  ["COc1cc(/C=C/c2nc3cc(Br)ccc3c(=O)[nH]2)ccc1-n1cnc(C)c1", 340],
  ["COc1cc(/C=C/c2nc3ccccc3c(=O)[nH]2)ccc1-n1cnc(C)c1", 3890],
  ["COc1cc(/C=C/c2nc3cc(C(F)(F)F)ccc3c(=O)[nH]2)ccc1-n1cnc(C)c1", 370],
  ["COc1cc(/C=C/c2nc3scc(C)c3c(=O)[nH]2)ccc1-n1cnc(C)c1", 1290],
  ["COc1cc(/C=C/c2nc(N)c3c4c(sc3n2)CCCCC4)ccc1-n1cnc(C)c1", 200]
]}

---

assay: Plasma clearance in Sprague-Dawley rat at 1 mg/kg, iv; type: ADME, organism-based; parameters: dose 1 mg/kg, route intravenous

{"columns": ["compound", "clearance"],
 "data": [
  ["COc1cc(/C=C/c2nc3cc(Cl)ccc3c(=O)[nH]2)ccc1-n1cnc(C)c1", "6.8 mL/min/kg"]
]}

---

test: Solubility of the compound in PBS buffer; format: physicochemical
observed-property: solubility (µM)

{"columns": ["compound", "data-value"],
 "data": [
  ["COc1cc(/C=C/c2nc3ccccc3c(=O)n2C)ccc1-n1cnc(C)c1", 33],
  ["COc1cc(/C=C/c2nc(N)c3ccccc3n2)ccc1-n1cnc(C)c1", 6]
]}

---

biological target: Gamma-secretase; assay: Inhibition of gamma-secretase in human SH-SY5Y cells overexpressing APP assessed as amyloid beta-42 production by electrochemiluminescent assay
pIC50: −log10 of the molar value.
Collected pIC50 values appear next to each entry.

{"columns": ["compound", "assayed-system", "relation-qualifier", "pIC50"],
 "data": [
  ["COc1cc(/C=C/c2nc3cc(S(C)(=O)=O)ccc3c(=O)[nH]2)ccc1-n1cnc(C)c1", "Gamma-secretase", "=", 5.66],
  ["COc1cc(/C=C/c2nc3sc4c(c3c(=O)[nH]2)CCC4)ccc1-n1cnc(C)c1", "Gamma-secretase", "=", 6.43],
  ["COc1cc(/C=C/c2nc3ccccc3c(=O)n2C)ccc1-n1cnc(C)c1", "Gamma-secretase", "<", 5.00],
  ["COc1cc(/C=C/c2nc3cccc(F)c3c(=O)[nH]2)ccc1-n1cnc(C)c1", "Gamma-secretase", "=", 5.31]
]}

meta.source: ChEMBL document CHEMBL1641467
